Selectivity index reference
species: Homo sapiens; assay: Selectivity index, 1 - (inhibition of PRL3/inhibition of TCPTP) at 50 uM
Form field (numeric): enter value without unit.

| Compound | Value |
| --- | --- |
| O=C1NC(=S)S/C1=C/c1ccc(-c2ccccc2C(=O)O)o1 | 0.22 |
| COc1cc(/C=C(\C#N)C(=O)OC(C)C)cc(Br)c1O | -0.29 |
| CCOC(=O)/C(C#N)=C/c1cc(Br)c(O)c(Br)c1 | 0.24 |

// Selectivity index value for O=C(O)c1ccc[n+]2c([O-])c(-c3ccccc3)sc12 : 0.1
